All values here come from patent US20220031723A1.

assay: Urinary excretion of quantified metabolites in collected fractions after extract intake; type: in vivo, human; conditions: after consuming lemon extract; fraction 8 to 10 h; mean ± SD
observable: Metabolite quantified in urine fraction F3 (μg/mg creatinine)

I = COc1ccc(C2CC(=O)c3c(O)cc(O)cc3O2)cc1OS(=O)(=O)O (centres unmarked) [M14, Hesperetin 3'-O-sulfate]
II = COc1ccc(C2CC(=O)c3c(O)cc(O)cc3O2)cc1O[C@@H]1O[C@H](C(=O)O)[C@@H](O)[C@H](O)[C@H]1O (some centres unmarked) [M8, Hesperetin 3'-O-glucuronide]
III = O=C1C[C@@H](c2ccc(O)cc2)Oc2cc(O[C@@H]3O[C@H](C(=O)O)[C@@H](O)[C@H](O)[C@H]3O)cc(O)c21 [M3, Naringenin 7-O-glucuronide]
Number of compounds to sort: 3. Sort criterion: Metabolite quantified in urine fraction F3, ascending. Give the labels in the order specified. III, I, II
(III: 1.7 μg/mg creatinine, I: 3.3 μg/mg creatinine, II: 9.2 μg/mg creatinine)

a = O=C1C[C@@H](c2ccc(O[C@@H]3O[C@H](C(=O)O)[C@@H](O)[C@H](O)[C@H]3O)cc2)Oc2cc(O)cc(O)c21 [M5, Naringenin 4'-O-glucuronide]
b = COc1ccc([C@@H]2CC(=O)c3c(O)cc(O[C@@H]4O[C@H](C(=O)O)[C@@H](O)[C@H](O)[C@H]4O)cc3O2)cc1O [M7, Hesperetin 7-O-glucuronide]
Which shows the larger Metabolite quantified in urine fraction F3 value: a or b ? Indicate which entry you chose by stating its label. b
